Cited source: the supplement of paper PMC11624193

- measured_target: PARP1 L713F-nLuc biosensor (HCT116)
- assay_procedure: PARP1 L713F-nLuc/akaLuc ratio relative to DMSO control (biosensor stabilization) (fold change); higher = more PARP1 biosensor stabilization (target engagement / stabilizer), active = hit call of the paper
- details: stock concentration (mM; final µM = stock mM x 1): 10; 24 h
Counter-ions that a name gives are not always drawn.
Answer each item with its documented PARP1 L713F-nLuc/akaLuc ratio.
Numbers only.

>  <molecule>
CCn1c(C(=O)N(C2CC2)C2CC2)cc2c3c(ncn3C)c(Nc3cc(C)n(C)n3)nc21

>  <test_value>
1.01

$$$$

Would you mind listing PARP1 L713F-nLuc/akaLuc ratio for each of the following molecules?
1. COc1cc2ncnc(Nc3cccc(Cl)c3F)c2cc1OC(=O)N1CCN(C)C[C@H]1C
2. N#Cc1cc(F)cc(Oc2ccc3c(c2C(F)F)[C@@H](O)C(F)(F)S3(=O)=O)c1
3. N=C(N)c1ccc(-c2ccc(-c3ccc(C(=N)N)cc3)o2)cc1 [Furamidine (dihydrochloride)]
4. COc1ccccc1S(=O)(=O)Nc1ccc2c3c(cc(-n4cnc(C)c4)nc13)C(=O)N2C
5. Cc1cc(C(C)Nc2ccccc2)c2nc(N3CCOCC3)cc(=O)n2c1 (stereo not drawn)
6. CCCc1cc(C)[nH]c(=O)c1CNC(=O)c1cc(-c2ccc(N3CCN(C)CC3)nc2)nc2c1cnn2C(C)C
7. CCS(=O)(=O)N1CCC([C@@H](C)n2c(C)c(C(=O)NCc3c(OC)cc(C)[nH]c3=O)c3ccccc32)CC1
8. COc1cc2c(NC3CCN(C(C)C)CC3)nc(N3CCC(F)(F)CC3)nc2cc1OCCCN1CCCC1

1. 1.31
2. 1.92
3. 0.717
4. 1.04
5. 0.773
6. 1.04
7. 1.51
8. 1.03

State the recorded PARP1 L713F-nLuc/akaLuc ratio for every item in the following list.
1. CC(=O)Nc1ccc(C(=O)Nc2ccc(F)cc2N)cc1
2. CC(C)c1c(-c2ccccc2)nc2c(C#N)c[nH]n2c1=O
3. C[C@@H]1CN(CC(=O)Nc2ccc3c(c2)Cc2cccc(-c4cc(=O)cc(N5CCOCC5)o4)c2S3)C[C@H](C)O1
4. O=C(c1cc(Cc2n[nH]c(=O)c3ccccc23)ccc1F)N1CCn2nc(C(F)(F)F)nc2C1
5. CC1(C)c2cccc(C(=O)NO)c2CN1c1cnc(C(F)(F)F)cn1
6. CCNC(=O)C#Cc1ccc2c(C(=Nc3ccc(CN(C)C)cc3)c3ccccc3)c(O)[nH]c2c1
7. CNCCN1CCC(OCc2ccccc2)CC1
8. Nc1nc(=O)n(-c2cccc(-c3ccccc3)c2)cc1Cl [Bobcat339 (hydrochloride)]

[0.984, 0.786, 0.788, 3.72, 0.913, 0.604, 0.908, 0.757]

Could you report PARP1 L713F-nLuc/akaLuc ratio for every entry in the following list?
1. O=c1[nH]c(=O)n([C@H]2C[C@H](O)[C@@H](CO)O2)cc1F
2. COc1cc2c(cc1OC)-c1c(C)c3ccc(OC)c(OC)c3c[n+]1CC2 [Dehydrocorydaline]
3. O=C(Nc1ccc(-c2ccnc(Nc3ccc(N4CCOCC4)cc3)n2)cc1)C1CCCN1 (stereo not drawn)
4. O=C(O)CCNc1cc(N2CCc3ccccc3CC2)nc(-c2cccnc2)n1

[0.549, 0.741, 0.659, 1.22]

I'm hoping you can list PARP1 L713F-nLuc/akaLuc ratio for every molecule here, please.
1. O=C(NCCCNC(=O)Nc1cccc(C2=NCCN2)c1)Nc1cccc(C2=NCCN2)c1
2. CC1=C(/C=C/C(C)=C/C=C/C(C)=C/C(=O)O)C(C)(C)CCC1

1. 1.09
2. 0.599

----------
- measured_target: PARP1 L713F-nLuc biosensor (HCT116) (UniProt P09874)
- Sequence (P09874 whole entry L713F, looked up): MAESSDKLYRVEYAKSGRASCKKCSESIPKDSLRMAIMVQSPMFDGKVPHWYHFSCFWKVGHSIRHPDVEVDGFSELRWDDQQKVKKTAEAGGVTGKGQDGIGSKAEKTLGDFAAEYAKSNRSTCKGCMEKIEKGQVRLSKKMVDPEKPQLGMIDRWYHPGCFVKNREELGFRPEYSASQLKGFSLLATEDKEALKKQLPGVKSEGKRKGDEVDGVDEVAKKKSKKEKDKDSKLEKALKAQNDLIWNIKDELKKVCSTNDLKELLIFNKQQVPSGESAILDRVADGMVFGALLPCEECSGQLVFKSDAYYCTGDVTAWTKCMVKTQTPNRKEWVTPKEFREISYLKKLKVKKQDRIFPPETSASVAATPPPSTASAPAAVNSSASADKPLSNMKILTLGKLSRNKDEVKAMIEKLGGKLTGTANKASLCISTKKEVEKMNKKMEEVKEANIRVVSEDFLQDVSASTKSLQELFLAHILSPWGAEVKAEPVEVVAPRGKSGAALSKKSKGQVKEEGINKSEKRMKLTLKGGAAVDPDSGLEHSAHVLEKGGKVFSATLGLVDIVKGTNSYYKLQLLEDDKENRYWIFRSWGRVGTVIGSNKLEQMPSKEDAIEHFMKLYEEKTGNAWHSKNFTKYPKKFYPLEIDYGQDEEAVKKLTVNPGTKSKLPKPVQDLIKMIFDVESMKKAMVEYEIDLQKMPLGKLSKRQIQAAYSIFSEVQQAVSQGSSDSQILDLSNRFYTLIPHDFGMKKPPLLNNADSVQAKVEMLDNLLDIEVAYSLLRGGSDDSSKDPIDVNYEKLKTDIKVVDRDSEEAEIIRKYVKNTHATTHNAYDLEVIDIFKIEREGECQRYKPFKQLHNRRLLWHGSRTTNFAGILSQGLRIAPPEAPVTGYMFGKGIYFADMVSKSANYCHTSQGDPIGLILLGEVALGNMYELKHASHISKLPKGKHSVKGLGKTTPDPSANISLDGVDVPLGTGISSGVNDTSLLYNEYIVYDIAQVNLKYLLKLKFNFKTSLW
- assay_procedure: PARP1 L713F-nLuc/akaLuc ratio relative to DMSO control (biosensor stabilization) (fold change); higher = more PARP1 biosensor stabilization (target engagement / stabilizer), active = hit call of the paper;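 active = log2 fold change beyond 2 SD from the library mean after excluding viability outliers; inactive = within 2 SD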
- details: stock concentration (mM; final µM = stock mM x 1): 10; 24 h
Counter-ions that a name gives are not always drawn.
Classes to choose from: 1 (yes) = active, 0 (no) = inactive

Example results:
>  <compound>
Cc1cc(Cl)ccc1OCCCC(=O)NO

>  <measured_target>
PARP1 L713F-nLuc biosensor (HCT116) (UniProt P09874)

>  <group>
1 (yes)

$$$$
>  <compound>
CCCS(=O)(=O)N[C@H]1C[C@@H](N(C)c2ncnc3[nH]ccc23)C1

>  <measured_target>
PARP1 L713F-nLuc biosensor (HCT116) (UniProt P09874)

>  <group>
0 (no)

$$$$
>  <compound>
c1cc(-c2cnn3cc(-c4ccc(OCCN5CCCCC5)cc4)cnc23)ccn1 [Dorsomorphin (dihydrochloride)]

>  <measured_target>
PARP1 L713F-nLuc biosensor (HCT116) (UniProt P09874)

>  <group>
0 (no)

$$$$
>  <compound>
O=C(c1cc(Cn2c(=O)[nH]c(=O)c3c(F)cccc32)ccc1F)N1CCN(c2ncccn2)CC1

>  <measured_target>
PARP1 L713F-nLuc biosensor (HCT116) (UniProt P09874)

>  <group>
1 (yes)

$$$$

Look up the recorded call for "Cc1ccc(C(=O)Nc2ccc(Oc3cc4cnn(C)c4cc3-c3cn[nH]c3)c(F)c2)c(=O)n1-c1ccc(F)cc1" in this test.
0 (no)

----------
Exercise: for every item that follows, state its recorded PARP1 L713F-nLuc/akaLuc ratio.
- measured_target: PARP1 L713F-nLuc biosensor (HCT116) (UniProt P09874)
- assay_procedure: PARP1 L713F-nLuc/akaLuc ratio relative to DMSO control (biosensor stabilization) (fold change); higher = more PARP1 biosensor stabilization (target engagement / stabilizer), active = hit call of the paper
- details: stock concentration (mM; final µM = stock mM x 1): 10; 24 h
Counter-ions that a name gives are not always drawn.
Numbers only.

Worked examples follow.
>  <compound>
Nc1nc(OCc2ccc(CNC(=O)C(F)(F)F)cc2)c2[nH]cnc2n1

>  <outcome_measure>
PARP1 L713F-nLuc/akaLuc ratio

>  <test_value>
1.38

$$$$
>  <compound>
NC(=O)c1ncn(C2OC(CO)C(O)C2O)c1N (configuration not stated) [AICAR (phosphate)]

>  <outcome_measure>
PARP1 L713F-nLuc/akaLuc ratio

>  <test_value>
1.04

$$$$
>  <compound>
COc1ccc(Cn2ccc3ccc(C(=O)NO)cc32)cc1

>  <outcome_measure>
PARP1 L713F-nLuc/akaLuc ratio

>  <test_value>
1.04

$$$$

I need PARP1 L713F-nLuc/akaLuc ratio for every entry listed below, if you could help.
1. CCC1=C[C@@H]2CN(C1)Cc1c([nH]c3ccccc13)[C@@](C(=O)OC)(c1cc3c(cc1OC)N(C)[C@H]1[C@@](O)(C(=O)OC)[C@H](OC(C)=O)[C@]4(CC)C=CCN5CC[C@]31[C@@H]54)C2 [Vinorelbine Tartrate]
2. CC1=C(CC[C@@H](C)CO[C@@H]2O[C@H](CO)[C@@H](O)[C@H](O)[C@H]2O)O[C@H]2C[C@H]3[C@@H]4CC=C5C[C@@H](O[C@@H]6O[C@H](CO)[C@@H](O[C@@H]7O[C@@H](C)[C@H](O)[C@@H](O)[C@H]7O)[C@H](O)[C@H]6O[C@@H]6O[C@@H](C)[C@H](O)[C@@H](O)[C@H]6O)CC[C@]5(C)[C@H]4CC[C@]3(C)[C@@H]12
3. COc1cc(OC)c2c(=O)[nH]c(-c3cc(C)c(OCCO)c(C)c3)nc2c1
4. Cc1nc(N)sc1-c1ccnc(Nc2ccc(N3CCOCC3)cc2)n1

1: 0.576; 2: 0.989; 3: 1.28; 4: 0.726

----------
- measured_target: PARP1 L713F-nLuc biosensor (HCT116) (UniProt P09874)
- assay_procedure: PARP1 L713F-nLuc/akaLuc ratio relative to DMSO control (biosensor stabilization) (fold change); higher = more PARP1 biosensor stabilization (target engagement / stabilizer), active = hit call of the paper
- details: stock concentration (mM; final µM = stock mM x 1): 10; 24 h
Rule: PARP1 L713F-nLuc/akaLuc ratio under 1 gives not satisfied, otherwise satisfied.

Reference set, count: 10
>  <compound>
Cc1ccc(-n2nc(C(C)(C)C)cc2NC(=O)Nc2ccc(OCCN3CCOCC3)c3ccccc23)cc1 [Doramapimod (BIRB 796)]

>  <measured_target>
PARP1 L713F-nLuc biosensor (HCT116) (UniProt P09874)

>  <group>
not satisfied

$$$$
>  <compound>
CC(C)N(CCCNC(=O)Nc1ccc(C(C)(C)C)cc1)C[C@H]1O[C@@H](n2ccc3c(N)ncnc32)[C@H](O)[C@@H]1O

>  <measured_target>
PARP1 L713F-nLuc biosensor (HCT116) (UniProt P09874)

>  <group>
satisfied

$$$$
>  <compound>
Nc1ccc(S(=O)(=O)NCCc2ccccc2)cc1

>  <measured_target>
PARP1 L713F-nLuc biosensor (HCT116) (UniProt P09874)

>  <group>
not satisfied

$$$$
>  <compound>
Cc1ccc(Nc2nccc(N(C)c3ccc4c(C)n(C)nc4c3)n2)cc1S(N)(=O)=O [Pazopanib]

>  <measured_target>
PARP1 L713F-nLuc biosensor (HCT116) (UniProt P09874)

>  <group>
satisfied

$$$$
>  <compound>
COc1cc(OC2CCN(C)CC2)ccc1Nc1ncc2c(n1)n(C1CCCC1)c(=O)n2C

>  <measured_target>
PARP1 L713F-nLuc biosensor (HCT116) (UniProt P09874)

>  <group>
satisfied

$$$$
>  <compound>
Cn1c(Nc2ccc(C(F)(F)F)cc2)nc2cc(Oc3ccnc(-c4ncc(C(F)(F)F)[nH]4)c3)ccc21

>  <measured_target>
PARP1 L713F-nLuc biosensor (HCT116) (UniProt P09874)

>  <group>
not satisfied

$$$$
>  <compound>
O=C(O)c1ccccc1Nc1cccc(C(F)(F)F)c1 [Flufenamic acid]

>  <measured_target>
PARP1 L713F-nLuc biosensor (HCT116) (UniProt P09874)

>  <group>
satisfied

$$$$
>  <compound>
Clc1ccc(Nc2nnc(Cc3ccncc3)c3ccccc23)cc1 [Vatalanib (PTK787) 2HCl]

>  <measured_target>
PARP1 L713F-nLuc biosensor (HCT116) (UniProt P09874)

>  <group>
not satisfied

$$$$
>  <compound>
O=C(Nc1ccc(C(F)(F)F)cc1)Nc1ccc(S(=O)(=O)N2CCC[C@H]2C(=O)Nc2ccccc2)cc1

>  <measured_target>
PARP1 L713F-nLuc biosensor (HCT116) (UniProt P09874)

>  <group>
not satisfied

$$$$
>  <compound>
CN(C)Cc1ccc(-c2nc3cccc4c3n2CCNC4=O)cc1

>  <measured_target>
PARP1 L713F-nLuc biosensor (HCT116) (UniProt P09874)

>  <group>
satisfied

$$$$

Kindly determine if PARP1 L713F-nLuc/akaLuc ratio recorded for "COc1cc2c(Nc3ccc(NC(=O)c4ccccc4)cc3)ncnc2cc1OCCCN1CCOCC1" is above or exactly 1.
not satisfied

Please tell me: is the compound "COc1cc2nc(N3CCCC3)nc(NCCCCCN3CCCC3)c2cc1OC" at or over 1 in terms of PARP1 L713F-nLuc/akaLuc ratio?
not satisfied

Exam item: decide whether the reported PARP1 L713F-nLuc/akaLuc ratio for "CCOC(=O)c1ccnc(CNCC(=O)N(CC)CCN(C)C)c1" is at least 1.
satisfied

Is the recorded value of PARP1 L713F-nLuc/akaLuc ratio equal to or greater than 1 for this compound? "O=C(NC[C@H](O)CN1CCc2ccccc2C1)c1ccnc(NC2CCC2)c1"
not satisfied

Determine whether this compound has PARP1 L713F-nLuc/akaLuc ratio no lower than 1: CNCc1ccc(-c2[nH]c3cc(F)cc4c3c2CCNC4=O)cc1 [Rucaparib (phosphate)]
satisfied

Is PARP1 L713F-nLuc/akaLuc ratio at least 1? Consider "Nc1nc(Nc2ccc(S(N)(=O)=O)cc2)nn1C(=O)c1c(F)cccc1F"
not satisfied
